Tested on: Staphylococcus aureus
Experiment: Antibacterial activity against Staphylococcus aureus incubated for 20 hrs by microbroth dilution method
Format: functional
Field: MIC. Provide a value for each of the compounds that follow.
Numbers only here, please. The scale is µg/mL.

Query: Requested read-out: MIC. Entry: `Fc1cc(F)c2[nH]c3cc(C(F)(F)F)ccc3c2c1F`
Reply: 0.78

Query: Requested read-out: MIC. Entry: `Cc1ccc(F)c2c1[nH]c1cc(C(F)(F)F)ccc12`
Reply: 1.56

Query: Requested read-out: MIC. Entry: `CCc1ccc2[nH]c3cc(F)cc(F)c3c2c1`
Reply: 1.56

Query: Requested read-out: MIC. Entry: `CCc1ccc2[nH]c3c(F)cc(F)c(F)c3c2c1`
Reply: 3.12

Query: Requested read-out: MIC. Entry: `Fc1ccc2[nH]c3c(F)cc(F)c(F)c3c2c1`
Reply: 1.56

Query: Requested read-out: MIC. Entry: `Fc1ccc2c(c1)[nH]c1c(F)cc(F)c(F)c12`
Reply: 3.12

Query: Requested read-out: MIC. Entry: `Cc1ccc2[nH]c3cc(F)cc(F)c3c2c1`
Reply: 100

Query: Requested read-out: MIC. Entry: `Cc1ccc(F)c2c1[nH]c1ccccc12`
Reply: 50

Query: Requested read-out: MIC. Entry: `Cc1ccc(F)c2c1[nH]c1cc(F)ccc12`
Reply: 50

Query: Requested read-out: MIC. Entry: `Fc1cc(F)c2c(c1)[nH]c1ccccc12`
Reply: 25

Query: Requested read-out: MIC. Entry: `Fc1ccc2c(c1)[nH]c1cc(F)cc(F)c12`
Reply: 1.56

Query: Requested read-out: MIC. Entry: C[C@@H](O)[C@H]1C(=O)N2C(C(=O)O)=C(S[C@@H]3CN[C@H](C(=O)N(C)C)C3)[C@H](C)[C@H]12 [MEROPENEM]
Reply: 0.78

----------
Field: MIC. Provide a value for each of the molecules that follow.
Test system: Staphylococcus aureus
Test: Antibacterial activity against Staphylococcus aureus incubated for 20 hrs by microbroth dilution method
Assay type: functional
Numbers only here, please. The scale is µg/mL.

Query: Report MIC for `Cc1ccc2c(c1)[nH]c1c(F)cc(F)c(F)c12` tested on Staphylococcus aureus.
Reply: 6.25

Query: Report MIC for `Cc1ccc2[nH]c3c(F)cc(F)c(F)c3c2c1` tested on Staphylococcus aureus.
Reply: 6.25

Query: Report MIC for `Cc1ccc2[nH]c3c(C)ccc(F)c3c2c1` tested on Staphylococcus aureus.
Reply: 6.25

Query: Report MIC for `CCc1ccc2[nH]c3c(C)ccc(F)c3c2c1` tested on Staphylococcus aureus.
Reply: 3.12

Query: Report MIC for `Fc1cc(F)c2c(c1)[nH]c1ccc(F)cc12` tested on Staphylococcus aureus.
Reply: 1.56

Query: Report MIC for `Cc1ccc2c(c1)[nH]c1cc(F)cc(F)c12` tested on Staphylococcus aureus.
Reply: 3.12
